The values you see were collected from patent USRE47404E1.

System: HCV replication
protocol description: Effect of nitazoxanide pre-treatment and treatment duration (3 or 6 days) on antiviral activity in replicon cultures
Format: cell-based, hepatitis C virus
experimental parameters: Hepatitis C virus, 72 h; duration 3 days; expressed as 2′CMeC concentration; read-out: EC50, 2′CMeC
Procedure: Antiviral activity for each test compound was determined as previously described (Okuse et al., 2005, Antiviral Research 65:23-34). Briefly, replicon cell lines were maintained as sub-confluent cultures on 96-well plates. […] Twenty-four hours after the last dose of compound, antiviral activity was determined by blot hybridization analysis of intracellular HCV RNA, and cytotoxicity was assessed by neutral red dye uptake. […]
reported property: EC50 (nM)
Give bare numbers, in nM.

Please report the recorded EC50 for C[C@@]1(O)[C@H](O)[C@@H](CO)O[C@H]1n1ccc(N)nc1=O .
1700

====

Test system: HCV replication in AVA5 replicon cell line (subgenomic construct of genotype 1b)
protocol description: microbe, parasite or virus in culture
experimental parameters: Hepatitis C virus, Ava5, AVA5
Task for the reader: assign each of the following compounds its reported EC90.
Give bare numbers, in µM.

# count of solved cases: 3
compound	system name	obs value
CC(=O)Oc1ccccc1C(=O)Nc1ncc([N+](=O)[O-])s1 [Nitazoxanide, nitazoxanide]	HCV replication in AVA5 replicon cell line (subgenomic construct of genotype 1b)	1
O=C(Nc1ncc([N+](=O)[O-])s1)c1ccccc1O [Tizoxanide, tizoxanide]	HCV replication in AVA5 replicon cell line (subgenomic construct of genotype 1b)	0.77
NC(=O)c1ncn([C@@H]2O[C@H](CO)[C@@H](O)[C@H]2O)n1	HCV replication in AVA5 replicon cell line (subgenomic construct of genotype 1b)	220

Please turn your attention to the following entry.
Please report the recorded EC90 for C[C@@]1(O)[C@H](O)[C@@H](CO)O[C@H]1n1ccc(N)nc1=O .
8.1

====

Tested on: HCV replication in H/FL-Neo replicon cell line (genotype 1a full length construct)
protocol description: microbe, parasite or virus in culture
Type: cell-based, hepatitis C virus
experimental parameters: Hepatitis C virus, read-out: EC50
reported property: pEC50
Numbers only, as −log10 of the molar value.

molecule	obs value
C[C@@]1(O)[C@H](O)[C@@H](CO)O[C@H]1n1ccc(N)nc1=O	5.74
CC(=O)Oc1ccccc1C(=O)Nc1ncc([N+](=O)[O-])s1 [Nitazoxanide, nitazoxanide]	6.48

Please turn your attention to the following entry.
Please report the recorded pEC50 for O=C(Nc1ncc([N+](=O)[O-])s1)c1ccccc1O [Tizoxanide, tizoxanide] .
6.60

====

Task for the reader: assign each of the following compounds its reported EC90.
System: HCV replication in RP7 replicon cell line (subgenomic construct of genotype 1b)
protocol description: microbe, parasite or virus in culture
Type: cell-based, hepatitis C virus
experimental parameters: Hepatitis C virus, read-out: EC90
Answers are plain numbers, in µM.

# count of solved cases: 3
compound	EC90 (µM)
NC(=O)c1ncn([C@@H]2O[C@H](CO)[C@@H](O)[C@H]2O)n1 [Ribavirin]	122
CC(=O)Oc1ccccc1C(=O)Nc1ncc([N+](=O)[O-])s1 [Nitazoxanide, nitazoxanide]	1.2
O=C(Nc1ncc([N+](=O)[O-])s1)c1ccccc1O [Tizoxanide, tizoxanide]	0.94

Please turn your attention to the following entry.
Please report the recorded EC90 for C[C@@]1(O)[C@H](O)[C@@H](CO)O[C@H]1n1ccc(N)nc1=O [2′-C-methyl cytidine] .
9
